Please go through the items and note down their inhibition.
Assay: yeast transport mutant growth inhibition pilot in 384-well plates, post-Golgi transport modulator project (AID 636); also: test concentration not given here
Conditions: absorbance 615 nm, about 18 h, active compounds read high
Give bare numbers, in %.

Use these answered entries as a reference point.
| compound | inhibition [%] |
| --- | --- |
| COc1cccc(-c2cc(C(=O)N3CCCCCC3)no2)c1 | -5.2 |
| O=C(Nc1ncc(Cc2ccccc2)s1)C1CCCO1 (stereo not drawn) | -4.67 |
| COc1cccc(N(C(C)=O)c2nc(C)cc(C)c2C#N)c1 | -7.26 |

Could you tell me inhibition for each of these compounds? They are listed below.
1. Cc1ccc(-n2ncc3c(N4CCCC(C)C4)ncnc32)c(C)c1 (stereo not drawn)
2. CC1(C)CC(=O)CC(C2(O)C(=O)N(Cc3ccccc3)c3ccccc32)O1 (stereo not drawn)
3. O=C(C1CCN(c2nnc(-n3cccc3)s2)CC1)N1CCOCC1

-5.07
1.2
-5.2

Could you tell me inhibition for each of these compounds? They are listed below.
1. CCCCOC(=O)c1[nH]c2c(c1C)C(=O)CC(c1cc(OC)c(OC)c(OC)c1)C2 (stereo not drawn)
2. CCOC(=O)/C(C#N)=C(/C)c1ccc(OC)cc1
3. O=C(c1ccc2nc(N3CCOCC3)sc2c1)N1CCCC1

1: 0.38; 2: -2.53; 3: -1.41

Could you tell me inhibition for each of these compounds? They are listed below.
1. COC(=O)Cn1c(=O)c2c(nc3n2CC(C)CN3c2ccc(C)c(C)c2)n(C)c1=O (stereo not drawn)
2. CC1CCN(c2nc3c(c(=O)[nH]c(=O)n3C)n2CCSc2ncccn2)CC1
3. COc1cccc(-c2nnc(NC(=O)c3ccccc3Br)o2)c1

-9.47
-4.4
-5.87

Could you tell me inhibition for each of these compounds? They are listed below.
1. COC(=O)c1cc(-c2ccccc2)sc1NC(=O)c1cc(C)on1
2. COc1ccccc1NC(=O)N1CCN(c2cccc(C(F)(F)F)c2)CC1

[-4.38, -3.11]
